Assay: Measurement of the approximate solubility (solvent added in steps to the solid)
Type: physicochemical
Details: TBME, 23 °C, organic solvent or mixture, thermodynamic from solid, TBME, 23° C.; read-out: Solubility
parameter: solubility

molecule	measurement
C[C@](O)(COc1ccc(C#N)cc1)C(=O)Nc1ccc(C#N)c(C(F)(F)F)c1 [Form A]	> 200 mg/mL

---

Assay: Measurement of the approximate solubility (solvent added in steps to the solid)
Assay type: physicochemical
Settings: acetone/n-heptane 1:3 v/v, 23 °C, organic solvent or mixture, thermodynamic from solid, acetone/n-heptane 1:3 v/v, 23° C.; read-out: Solubility
parameter: solubility (mg/mL)

compound	measurement
C[C@](O)(COc1ccc(C#N)cc1)C(=O)Nc1ccc(C#N)c(C(F)(F)F)c1 [Form A]	90
